Catalogue of pIC50 readings, one per entry.
biological target: UniProt P30542; test: Antagonist activity at adenosine A1 receptor by cAMP assay
pIC50: −log10 of the molar value.
reportedMetric: pIC50

[[record]]
smilesstring = "Cc1ccccc1-n1nc(C)c(-c2ccc3nccnc3c2)c1Nc1ccccc1C(=O)O"
reading = 8.10

[[record]]
smilesstring = "COc1ccc(Nc2c(-c3ccc(C)cc3)c(C)nn2-c2ccccc2C)c(C(=O)O)c1"
reading = 8.50

[[record]]
smilesstring = "CCc1ccccc1-n1nc(C)c(-c2ccc3nccnc3c2)c1Nc1ccc(OC)cc1C(=O)O"
reading = 8.19

[[record]]
smilesstring = "COc1ccc(-c2c(C)nn(-c3ccccc3C)c2Nc2ccc(OC)cc2C(=O)O)cc1"
reading = 6.51

[[record]]
smilesstring = "COc1ccc(Nc2c(-c3ccc(C(C)=O)cc3)c(C)nn2-c2ccccc2C)c(C(=O)O)c1"
reading = 7.40

[[record]]
smilesstring = "CCc1nn(-c2ccccc2C)c(Nc2ccccc2C(=O)O)c1-c1ccc2nccnc2c1"
reading = 7.89


* * *

Catalogue of clearance readings, one per entry.
test: Blood clearance in Wistar rat at 1 mg/kg, iv and 3 mg/kg, po; format: ADME, organism-based; conditions: whole blood
reportedMetric: clearance (mL/min/kg)

[[record]]
smilesstring = "Cc1ccccc1-n1nc(C)c(-c2cc(F)c3nccnc3c2)c1Nc1ccccc1C(=O)O"
reportedmetric = "clearance"
outputunit = "mL/min/kg"
reading = 9.5

[[record]]
smilesstring = "COc1ccc(Nc2c(-c3ccc4nccnc4c3)c(C)nn2-c2ccccc2C)c(C(=O)O)c1"
reportedmetric = "clearance"
outputunit = "mL/min/kg"
reading = 43.7

[[record]]
smilesstring = "COc1ccc(Nc2c(-c3ccc(C(C)=O)cc3)c(C)nn2-c2ccccc2C)c(C(=O)O)c1"
reportedmetric = "clearance"
outputunit = "mL/min/kg"
reading = 66.7


* * *

molecular target: Adenosine receptor A1 (Homo sapiens, UniProt P30542); experiment: Antagonist activity at adenosine A1 receptor by cAMP assay
Sequence (P30542 whole entry): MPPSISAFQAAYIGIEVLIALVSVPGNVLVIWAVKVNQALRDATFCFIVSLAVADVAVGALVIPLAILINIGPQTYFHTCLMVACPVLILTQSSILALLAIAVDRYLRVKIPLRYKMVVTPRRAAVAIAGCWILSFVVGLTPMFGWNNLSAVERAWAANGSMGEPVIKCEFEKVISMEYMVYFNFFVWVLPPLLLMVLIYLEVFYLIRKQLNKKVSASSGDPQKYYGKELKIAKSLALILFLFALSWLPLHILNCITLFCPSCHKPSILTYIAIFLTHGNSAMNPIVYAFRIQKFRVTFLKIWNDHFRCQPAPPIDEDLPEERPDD
pIC50: −log10 of the molar value.
Rule: yes for pIC50 not less than 8, no for anything less.

[[record]]
smilesstring = "COc1ccc(Nc2c(-c3ccc(F)c(F)c3)c(C)nn2-c2ccccc2C)c(C(=O)O)c1"
testedon = "Adenosine receptor A1 (Homo sapiens, UniProt P30542)"
grouplabel = "no"

[[record]]
smilesstring = "COc1ccc(Nc2c(-c3ccc4nccnc4c3)c(C)nn2-c2ccccc2)c(C(=O)O)c1"
testedon = "Adenosine receptor A1 (Homo sapiens, UniProt P30542)"
grouplabel = "yes"

[[record]]
smilesstring = "Cc1ccccc1-n1ncc(-c2ccc3nccnc3c2)c1Nc1ccccc1C(=O)O"
testedon = "Adenosine receptor A1 (Homo sapiens, UniProt P30542)"
grouplabel = "no"


* * *

biological target: UniProt P30542; assay: Antagonist activity at adenosine A1 receptor by cAMP assay
pIC50: −log10 of the molar value.
Catalogue of pIC50 readings, one per entry.
reportedMetric: pIC50

[[record]]
smilesstring = "COc1ccc(Nc2c(-c3ccc(C)c(C)c3)c(C)nn2-c2ccccc2C)c(C(=O)O)c1"
testedon = "UniProt P30542"
reading = 6.25

[[record]]
smilesstring = "COc1ccc(Nc2c(-c3ccc4nccnc4c3)c(C)nn2-c2ccccc2C)c(C(=O)O)c1"
testedon = "UniProt P30542"
reading = 8.49

[[record]]
smilesstring = "COc1ccc(Nc2c(-c3ccc4c(c3)OCCO4)c(C)nn2-c2ccccc2C)c(C(=O)O)c1"
testedon = "UniProt P30542"
reading = 7.57

[[record]]
smilesstring = "COc1ccc(Nc2c(-c3ccc(OC)c(OC)c3)c(C)nn2-c2ccccc2C)c(C(=O)O)c1"
testedon = "UniProt P30542"
reading = 6.63

[[record]]
smilesstring = "COc1ccc(Nc2c(-c3ccc4nccnc4c3)c(C)nn2C2CCCCC2)c(C(=O)O)c1"
testedon = "UniProt P30542"
reading = 6.36

[[record]]
smilesstring = "COc1ccc(Nc2c(-c3ccc4c(c3)OCO4)c(C)nn2-c2ccccc2C)c(C(=O)O)c1"
testedon = "UniProt P30542"
reading = 6.64

[[record]]
smilesstring = "Cc1ccc(Nc2c(-c3ccc4nccnc4c3)c(C)nn2-c2ccccc2C)c(C(=O)O)c1"
testedon = "UniProt P30542"
reading = 8.29

[[record]]
smilesstring = "COc1ccc(Nc2c(-c3ccc(F)cc3)c(C)nn2-c2ccccc2C)c(C(=O)O)c1"
testedon = "UniProt P30542"
reading = 8.86

[[record]]
smilesstring = "Cc1ccccc1-n1nc(C)c(-c2ccc3nccnc3c2)c1Nc1ccc(Cl)cc1C(=O)O"
testedon = "UniProt P30542"
reading = 7.80


* * *

experiment: Oral bioavailability in Wistar rat at 3 mg/kg; type: ADME, organism-based; details: in vivo
reportedMetric: bioavailability (%)

[[record]]
smilesstring = "COc1ccc(Nc2c(-c3ccc(C(C)=O)cc3)c(C)nn2-c2ccccc2C)c(C(=O)O)c1"
outputunit = "%"
reading = 20

[[record]]
smilesstring = "COc1ccc(Nc2c(-c3ccc4nccnc4c3)c(C)nn2-c2ccccc2C)c(C(=O)O)c1"
outputunit = "%"
reading = 20

[[record]]
smilesstring = "Cc1ccccc1-n1nc(C)c(-c2cc(F)c3nccnc3c2)c1Nc1ccccc1C(=O)O"
outputunit = "%"
reading = 97


* * *

Catalogue of IC50 readings, one per entry.
biological target: Adenosine receptor A2b (Homo sapiens); assay: Antagonist activity at adenosine A2B receptor by cAMP assay
reportedMetric: IC50

[[record]]
smilesstring = "Cc1ccccc1-n1nc(C)c(-c2ccc3nccnc3c2)c1Nc1ccc(Cl)cc1C(=O)O"
reportedmetric = "IC50"
reading = "> 50 µM"

[[record]]
smilesstring = "COc1ccc(Nc2c(-c3ccc4nccnc4c3)c(C)nn2-c2ccccc2C)c(C(=O)O)c1"
reportedmetric = "IC50"
reading = "> 50 µM"

[[record]]
smilesstring = "CCc1ccccc1-n1nc(C)c(-c2ccc3nccnc3c2)c1Nc1ccc(OC)cc1C(=O)O"
reportedmetric = "IC50"
reading = "> 50 µM"


* * *

Biological target: Adenosine receptor A2b (Homo sapiens, UniProt P29275)
Sequence (P29275 whole entry): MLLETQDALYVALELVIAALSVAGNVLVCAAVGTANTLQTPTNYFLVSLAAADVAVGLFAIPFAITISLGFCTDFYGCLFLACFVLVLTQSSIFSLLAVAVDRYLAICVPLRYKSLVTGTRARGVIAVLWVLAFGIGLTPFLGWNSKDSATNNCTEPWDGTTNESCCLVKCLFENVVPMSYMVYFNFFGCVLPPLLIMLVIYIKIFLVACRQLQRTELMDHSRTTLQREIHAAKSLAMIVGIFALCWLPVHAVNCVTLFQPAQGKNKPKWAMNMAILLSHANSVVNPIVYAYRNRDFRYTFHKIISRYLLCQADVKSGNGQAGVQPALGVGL
Assay: Antagonist activity at adenosine A2B receptor by cAMP assay
pIC50: −log10 of the molar value.
reportedMetric: pIC50

[[record]]
smilesstring = "COc1ccc(Nc2c(-c3ccc4nccnc4c3)c(C)nn2-c2ccccc2Cl)c(C(=O)O)c1"
reportedmetric = "pIC50"
reading = "< 4.30"

[[record]]
smilesstring = "COc1ccc(Nc2c(-c3ccc4nccnc4c3)c(C)nn2C2CCCCC2)c(C(=O)O)c1"
reportedmetric = "pIC50"
reading = "< 4.30"

[[record]]
smilesstring = "COc1ccc(Nc2c(-c3ccc4nccnc4c3)c(C)nn2-c2ccccc2)c(C(=O)O)c1"
reportedmetric = "pIC50"
reading = 5.96

[[record]]
smilesstring = "Cc1ccc(Nc2c(-c3ccc4nccnc4c3)c(C)nn2-c2ccccc2C)c(C(=O)O)c1"
reportedmetric = "pIC50"
reading = "< 4.30"

[[record]]
smilesstring = "Cc1ccccc1-n1nc(C)c(-c2ccc3nccnc3c2)c1Nc1ccccc1C(=O)O"
reportedmetric = "pIC50"
reading = "< 4.30"

[[record]]
smilesstring = "Cc1ccccc1-n1ncc(-c2ccc3nccnc3c2)c1Nc1ccccc1C(=O)O"
reportedmetric = "pIC50"
reading = "< 4.30"

[[record]]
smilesstring = "Cc1ccccc1-n1nc(C)c(-c2cc(F)c3nccnc3c2)c1Nc1ccccc1C(=O)O"
reportedmetric = "pIC50"
reading = "< 4.30"

[[record]]
smilesstring = "CCc1nn(-c2ccccc2C)c(Nc2ccccc2C(=O)O)c1-c1ccc2nccnc2c1"
reportedmetric = "pIC50"
reading = "< 4.30"

[[record]]
smilesstring = "Cc1ccccc1-n1nc(C(F)(F)F)c(-c2ccc3nccnc3c2)c1Nc1ccccc1C(=O)O"
reportedmetric = "pIC50"
reading = 4.72


* * *

Catalogue of pIC50 readings, one per entry.
target: Adenosine receptor A2a (Homo sapiens, UniProt P29274); experiment: Antagonist activity at adenosine A2A receptor by cAMP assay
Sequence (P29274 whole entry): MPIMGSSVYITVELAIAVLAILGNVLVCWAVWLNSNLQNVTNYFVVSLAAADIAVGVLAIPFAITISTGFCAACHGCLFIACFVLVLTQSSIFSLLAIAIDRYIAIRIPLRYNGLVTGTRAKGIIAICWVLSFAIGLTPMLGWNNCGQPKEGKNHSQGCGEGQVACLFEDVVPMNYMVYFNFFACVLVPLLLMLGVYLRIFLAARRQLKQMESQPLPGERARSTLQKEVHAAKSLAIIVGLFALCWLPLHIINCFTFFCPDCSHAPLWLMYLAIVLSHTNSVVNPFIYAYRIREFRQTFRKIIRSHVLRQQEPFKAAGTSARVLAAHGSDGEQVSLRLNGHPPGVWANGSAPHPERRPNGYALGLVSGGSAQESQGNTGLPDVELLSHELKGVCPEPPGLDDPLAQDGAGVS
pIC50: −log10 of the molar value.
reportedMetric: pIC50

[[record]]
smilesstring = "Cc1ccccc1-n1nc(C)c(-c2cc(F)c3nccnc3c2)c1Nc1ccccc1C(=O)O"
reading = "< 4.30"

[[record]]
smilesstring = "Cc1ccccc1-n1ncc(-c2ccc3nccnc3c2)c1Nc1ccccc1C(=O)O"
reading = "< 4.30"

[[record]]
smilesstring = "COc1ccc(Nc2c(-c3ccc4nccnc4c3)c(C)nn2C2CCCCC2)c(C(=O)O)c1"
reading = "< 4.30"

